Value source: patent US7772241B2

Experiment: Inhibition of cells growth by colorimetric (SRB) assay, HMEC1
Details: human, HMEC1 cells, H-MEC-1 LC50, SRB assay, 48 hours exposure
Could you please report measured CC50 at 48 h for the items listed next?
Number only, in µM; omit the unit.

Per the records, this molecule ( CSc1nccc2c(-c3cccc([N+](=O)[O-])c3)c3cccnc3n12 [Compound 59] ) has CC50 at 48 h equal to 29.7

Per the records, this molecule ( Nc1nccc2c(-c3ccncn3)c3cccnc3n12 [Compound 70] ) has CC50 at 48 h equal to 4

Per the records, this molecule ( Cc1nccc(-c2c3cccnc3n3c(N)nccc23)n1 [Compound 75] ) has CC50 at 48 h equal to 36.2
